Tested on: Staphylococcus aureus ATCC33591(resistant to methicillin)
Assay: MIC determination in broth microdilution assay
Conditions: B: Staphylococcus aureus ATCC33591(resistant to methicillin)
PROPERTY MEASURED: MIC (µM)
Response body: numeric value in µM, unit text excluded.

Examples with answers:
## Input Using the record for C=CC(C)(C)c1cc(/C=C/C(=O)c2ccc(O)cc2)c(OC)cc1O [LicA, Licochalcone A] , report its MIC.
## Output 37.5

## Input Using the record for COc1ccc(C(=O)/C=C/c2cc(-c3cc(C)cc(C)c3)ccc2OCCN(C)C)cc1 [Compound C023] , report its MIC.
## Output 4.7

## Input Using the record for Cc1cc(C)cc(-c2ccc(OCCN(C)C)c(/C=C/C(=O)c3ccc(OCCN(C)C)cc3F)c2)c1 [Compound C157] , report its MIC.
## Output 9.4

## Input Using the record for Cc1cc(C)cc(-c2ccc(OCCN(C)C)c(/C=C/C(=O)c3ccccc3N)c2)c1 [Compound C093] , report its MIC.
## Output 4.7

## Input Using the record for Cc1cc(C)cc(-c2ccc(OCCN(C)C)c(/C=C/C(=O)c3ccccc3NCCN(C)C)c2)c1 [Compound C074] , report its MIC.
## Output 9.4

Now turn to the next compound.
## Input Using the record for Cc1cc(C)cc(-c2ccc(OCCN(C)C)c(/C=C/C(=O)c3ccccc3OCCCN(C)C)c2)c1 [Compound C104] , report its MIC.
## Output 18.8

Source of measurements: patent US7423181B2
